Target: T1, RarA (MgsA) (Escherichia coli, UniProt P0AAZ4 1-447)
T1 sequence: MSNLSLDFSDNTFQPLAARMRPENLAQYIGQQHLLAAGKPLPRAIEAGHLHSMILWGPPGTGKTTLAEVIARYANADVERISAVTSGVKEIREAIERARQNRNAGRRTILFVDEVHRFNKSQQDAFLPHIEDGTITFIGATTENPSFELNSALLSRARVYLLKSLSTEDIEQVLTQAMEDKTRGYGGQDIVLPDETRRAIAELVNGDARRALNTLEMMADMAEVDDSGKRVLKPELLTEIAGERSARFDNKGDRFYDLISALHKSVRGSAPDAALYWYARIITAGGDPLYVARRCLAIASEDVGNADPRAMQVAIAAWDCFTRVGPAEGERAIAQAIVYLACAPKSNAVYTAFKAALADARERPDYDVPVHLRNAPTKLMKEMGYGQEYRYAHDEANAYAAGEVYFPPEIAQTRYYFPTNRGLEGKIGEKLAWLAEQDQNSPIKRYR
Experiment: fluorescence polarization
QUANTITY_MEASURED: Kd (nM)
The reply should be a number in nM, with the unit left off.

[Q] # return recorded Kd for input ACACAGAAGGAGACGG (ssDNA) [oANP031_F 16 nt ssDNA]
[A] 890
